Where do the numbers come from? From ChEMBL document CHEMBL1133852.

System: Candida tropicalis
Test: Tested for antifungal activity against amp B resistant strain Candida tropicalis CIP 1275-81 after 48 hr incubation
Type: functional
ENDPOINT LABEL: MIC (µg/mL)
API: value field is a number in µg/mL; no unit string.

COMPOUND | ASSAY SYSTEM | MIC / µg/mL
CC(C)CCC[C@@H](C)C1CC[C@H]2[C@@H]3[C@H](N)CC4C[C@@H](O)CC[C@]4(C)[C@H]3CC[C@]12C (some centres undefined) | Candida tropicalis | 1.5
CC(C)CCC[C@@H](C)C1CC[C@H]2[C@@H]3[C@@H](N)CC4C[C@@H](O)CC[C@]4(C)[C@H]3CC[C@]12C (some centres undefined) | Candida tropicalis | 1.5
CC(C)CCCC(C)[C@H]1CC[C@H]2C3C(N)C=C4C[C@@H](O)CCC4(C)[C@H]3CCC12C (some centres undefined) | Candida tropicalis | 1.5

Switching to the query record.
Data request: Param item = C[C@@H]1[C@H](O)[C@@H](C)/C=C/C=C/C=C/C=C/C=C/C=C/C=C/[C@H](O[C@@H]2O[C@H](C)[C@@H](O)[C@H](N)[C@@H]2O)C[C@@H]2O[C@](O)(C[C@@H](O)C[C@@H](O)[C@H](O)CC[C@@H](O)C[C@@H](O)CC(=O)O[C@H]1C)C[C@H](O)[C@H]2C(=O)O ; retrieve measured MIC.
Data returned: 12.5
